biological target: recombinant Plk1 protein (Homo sapiens); construct: histidine tag (N); test: Plk1 kinase activity inhibition assay (33P-ATP, alpha casein substrate, flash plates); conditions: enzymatic assay, 100 nM Li-ATP, 80 minutes at 30° C.
Sequence (P53350 whole entry): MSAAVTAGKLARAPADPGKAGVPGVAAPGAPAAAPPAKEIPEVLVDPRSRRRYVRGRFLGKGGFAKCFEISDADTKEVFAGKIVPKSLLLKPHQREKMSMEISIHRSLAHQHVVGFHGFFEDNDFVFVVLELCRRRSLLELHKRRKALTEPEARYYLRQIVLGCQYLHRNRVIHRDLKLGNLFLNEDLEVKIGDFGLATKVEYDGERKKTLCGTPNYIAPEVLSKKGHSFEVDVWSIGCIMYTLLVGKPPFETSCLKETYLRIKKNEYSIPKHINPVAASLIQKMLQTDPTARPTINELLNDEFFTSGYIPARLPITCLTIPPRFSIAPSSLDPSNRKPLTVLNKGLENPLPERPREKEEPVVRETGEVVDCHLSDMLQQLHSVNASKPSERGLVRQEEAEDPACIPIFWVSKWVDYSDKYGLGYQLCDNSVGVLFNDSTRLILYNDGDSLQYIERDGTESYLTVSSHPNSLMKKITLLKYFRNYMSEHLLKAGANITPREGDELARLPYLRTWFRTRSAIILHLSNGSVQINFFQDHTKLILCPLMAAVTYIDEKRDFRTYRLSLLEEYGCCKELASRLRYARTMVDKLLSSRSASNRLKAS
pIC50: −log10 of the molar value.
Measured endpoint: pIC50

In [3]: df
Out[3]:
                                    molecule  measured_endpoint  endpoint_value
 0  C[C@@H](Oc1cc(-n2cnc3cnc(CN4CCC(N(C)C)CC4)cc32)sc1C(N)=O)c1ccccc1C(F)(F)F              pIC50          > 8.00
 1  C[C@@H](Oc1cc(-n2cnc3cnc(CN4CCN(CCCO)CC4)cc32)sc1C(N)=O)c1ccccc1C(F)(F)F              pIC50          > 8.00
 2  CCN1CCN(Cc2cc3c(cn2)ncn3-c2cc(OC(C)c3ccccc3OC(F)F)c(C(N)=O)s2)CC1 (stereo not drawn)              pIC50          > 8.00
 3  NC(=O)c1sc(-n2cnc3cnccc32)cc1OCc1ccccc1C(F)(F)F              pIC50    7.00 to 8.00
 4  C[C@@H](Oc1cc(-n2cnc3cnc(CN4CCN(CCN(C)C)CC4)cc32)sc1C(N)=O)c1ccccc1Cl              pIC50    7.00 to 8.00
 5  CC(=O)N1CCCN(Cc2cc3c(cn2)ncn3-c2cc(O[C@H](C)c3ccccc3C(F)(F)F)c(C(N)=O)s2)CC1              pIC50    7.00 to 8.00
 6  CC(Oc1cc(-n2cnc3cnccc32)sc1C(N)=O)c1ccccc1C(F)(F)F (stereo not drawn)              pIC50    7.00 to 8.00
 7  CCC(Oc1cc(-n2cnc3cnc(CN4CCN(CCO)CC4)cc32)sc1C(N)=O)c1ccccc1Cl (stereo not drawn)              pIC50    7.00 to 8.00
 8  C[C@@H](Oc1cc(-n2cnc3cnc(CN4CCNCC4)cc32)sc1C(N)=O)c1ccccc1C(F)(F)F              pIC50          > 8.00
 9  C[C@@H](Oc1cc(-n2cnc3cnc(CNC(C)(C)C)cc32)sc1C(N)=O)c1ccccc1C(F)(F)F              pIC50    7.00 to 8.00
10  NC(=O)c1sc(-n2cnc3cnccc32)cc1OCc1ccccc1OC(F)(F)F              pIC50    7.00 to 8.00
11  C[C@@H](Oc1cc(-n2cnc3cnc(CO)cc32)sc1C(N)=O)c1ccccc1F              pIC50          > 8.00
12  CCNCc1cc2c(cn1)ncn2-c1cc(O[C@H](C)c2ccccc2C(F)(F)F)c(C(N)=O)s1              pIC50    7.00 to 8.00
13  NC(=O)c1sc(-n2cnc3ccncc32)cc1OCc1ccccc1OC(F)F              pIC50    7.00 to 8.00
14  C[C@@H](Oc1cc(-n2cnc3ccncc32)sc1C(N)=O)c1ccccc1Cl              pIC50          > 8.00
15  CCC(Oc1cc(-n2cnc3cnc(CN4CCN(C(=O)N(C)C)CC4)cc32)sc1C(N)=O)c1ccccc1Cl (stereo not drawn)              pIC50    7.00 to 8.00
16  CC(Oc1cc(-n2cnc3ccncc32)sc1C(N)=O)c1ccccc1C(F)(F)F (stereo not drawn)              pIC50    7.00 to 8.00
17  CC(C)N1CCN(Cc2cc3c(cn2)ncn3-c2cc(O[C@H](C)c3ccccc3C(F)(F)F)c(C(N)=O)s2)CC1              pIC50          > 8.00
18  CN1CCN(Cc2cc3c(cn2)ncn3-c2cc(OC(c3ccccc3Cl)C(F)(F)F)c(C(N)=O)s2)CC1 (stereo not drawn)              pIC50          > 8.00
19  CC(Oc1cc(-n2cnc3cc(CN4CCS(=O)(=O)CC4)ncc32)sc1C(N)=O)c1ccccc1F (stereo not drawn)              pIC50    5.00 to 6.00
20  CC1CCN(Cc2cc3c(cn2)ncn3-c2cc(O[C@H](C)c3ccccc3C(F)(F)F)c(C(N)=O)s2)CC1              pIC50    7.00 to 8.00
21  CN(CCN1CCOCC1)C(=O)c1cc2c(cn1)ncn2-c1cc(OCc2ccccc2C(F)(F)F)c(C(N)=O)s1              pIC50    5.00 to 6.00
22  CCN1CCN(Cc2cc3c(cn2)ncn3-c2cc(O[C@H](C)c3ccccc3Cl)c(C(N)=O)s2)CC1              pIC50          > 8.00
23  C[C@@H](Oc1cc(-n2cnc3cnc(CNCCN4CCOCC4)cc32)sc1C(N)=O)c1ccccc1C(F)(F)F              pIC50    7.00 to 8.00
24  COc1ccc2ncn(-c3cc(OCc4ccccc4C(F)(F)F)c(C(N)=O)s3)c2n1              pIC50          > 8.00
25  C[C@@H](Oc1cc(-n2cnc3cnc(CN4C[C@@H]5C[C@H]4CN5)cc32)sc1C(N)=O)c1ccccc1C(F)(F)F              pIC50          > 8.00
26  NC(=O)c1sc(-n2cnc3ccncc32)cc1OCc1ccc(F)cc1C(F)(F)F              pIC50    7.00 to 8.00
27  C[C@@H](Oc1cc(-n2cnc3cnc(CN4CCN(S(C)(=O)=O)CC4)cc32)sc1C(N)=O)c1ccccc1C(F)(F)F              pIC50          > 8.00
28  C[C@@H](Oc1cc(-n2cnc3cnc(CN4CCN(C(=O)N(C)C)CC4)cc32)sc1C(N)=O)c1ccccc1C(F)(F)F              pIC50          > 8.00
29  C[C@H](Oc1cc(-n2cnc3cnc(CO)cc32)sc1C(N)=O)c1ccccc1C(F)(F)F              pIC50    6.00 to 7.00

The measured values listed here are drawn from patent US8273890B2.
